SUBJECT OF TEST: T1, streptavidin (UniProt P22629 37-163, limits assumed)
T1 construct: It was used without a stated label in the sandwich assays; also called SA
EXPERIMENTAL DETAILS: apparent Kd (Kd,app); fluorescent binding curve, labeled SA in 50% urine, 4 h; quadratic fit
MEASURED PROPERTY: pKd
Expect pKd as a plain number equal to -log10 of the molar concentration.

Give recorded pKd. rcSso7d.SA monolayer (designed binder, EDC/NHS-activated protein coupled to an amine-functionalized silicon wafer, also called monomeric rcSso7d.SA; surface-immobilized rcSso7d.SA) MGSIHHHHHHSSGLVPRGSHMCATVKFTYQGEEKQVDISKIKIVARDGQYIDFKYDEGGGAYGYGWVSEKDAPKELLQMLEKQ
4.33

Data provenance: patent US20200057058A1
